Where do these numbers come from? They come from patent US8846904B2.

Can you tell me Solubility Co (solubility in dioxane) for the items I'm about to list?
ASSAY: Solubility in dioxane (Co), absorption spectrum
Format: physicochemical
CONDITION_PARAMETERS: solvent dioxane
Numeric answer only, unit µM assumed.

INPUT: Request the reported Solubility Co (solubility in dioxane) associated with COCCOCCOCCO[P-]123(OCCOCCOCCOC)n4c5ccc4C(c4ccccc4)=C4C=CC(=[N+]41)C(c1ccccc1)=c1ccc(n12)=C(c1ccccc1)C1=[N+]3C(=C5c2ccccc2)C=C1.Cl
OUTPUT: 245

INPUT: Request the reported Solubility Co (solubility in dioxane) associated with CCCCOCCOCCO[P-]123(OCCOCCOCCCC)n4c5ccc4C(c4ccccc4)=C4C=CC(=[N+]41)C(c1ccccc1)=c1ccc(n12)=C(c1ccccc1)C1=[N+]3C(=C5c2ccccc2)C=C1.Cl
OUTPUT: 293

INPUT: Request the reported Solubility Co (solubility in dioxane) associated with CCOCCOCCO[P-]123(OCCOCCOCC)n4c5ccc4C(c4ccccc4)=C4C=CC(=[N+]41)C(c1ccccc1)=c1ccc(n12)=C(c1ccccc1)C1=[N+]3C(=C5c2ccccc2)C=C1.Cl
OUTPUT: 169

INPUT: Request the reported Solubility Co (solubility in dioxane) associated with CCCCCCOCCOCCO[P-]123(OCCOCCOCCCCCC)n4c5ccc4C(c4ccccc4)=C4C=CC(=[N+]41)C(c1ccccc1)=c1ccc(n12)=C(c1ccccc1)C1=[N+]3C(=C5c2ccccc2)C=C1.Cl
OUTPUT: 244

---

ASSAY: Solubility in dioxane (Co), absorption spectrum
Format: physicochemical
CONDITION_PARAMETERS: solvent dioxane
OUTCOME_MEASURE: Solubility Co (solubility in dioxane)

INPUT: Request the reported Solubility Co (solubility in dioxane) associated with COCCOCCO[P-]123(OCCOCCOC)n4c5ccc4C(c4ccccc4)=C4C=CC(=[N+]41)C(c1ccccc1)=c1ccc(n12)=C(c1ccccc1)C1=[N+]3C(=C5c2ccccc2)C=C1.Cl
OUTPUT: 140 µM

---

ASSAY: Solubility in water (Cw), saturated aqueous solution, absorption spectrum
Assay type: physicochemical
CONDITION_PARAMETERS: saturated aqueous solution, allowed to stand for 3 days
Can you tell me Solubility Cw (solubility in water) for the items I'm about to list?

INPUT: Request the reported Solubility Cw (solubility in water) associated with CCCCCCOCCOCCO[P-]123(OCCOCCOCCCCCC)n4c5ccc4C(c4ccccc4)=C4C=CC(=[N+]41)C(c1ccccc1)=c1ccc(n12)=C(c1ccccc1)C1=[N+]3C(=C5c2ccccc2)C=C1.Cl
OUTPUT: 2.07 mM

INPUT: Request the reported Solubility Cw (solubility in water) associated with CCCCCCCCCCCCOCCOCCOCCOCCOCCOCCOCCOCCOCCO[P-]123(OCCOCCOCCOCCOCCOCCOCCOCCOCCOCCCCCCCCCCCC)n4c5ccc4C(c4ccccc4)=C4C=CC(=[N+]41)C(c1ccccc1)=c1ccc(n12)=C(c1ccccc1)C1=[N+]3C(=C5c2ccccc2)C=C1.Cl
OUTPUT: 14.46 mM

INPUT: Request the reported Solubility Cw (solubility in water) associated with CCOCCOCCO[P-]123(OCCOCCOCC)n4c5ccc4C(c4ccccc4)=C4C=CC(=[N+]41)C(c1ccccc1)=c1ccc(n12)=C(c1ccccc1)C1=[N+]3C(=C5c2ccccc2)C=C1.Cl
OUTPUT: 13.0 mM

INPUT: Request the reported Solubility Cw (solubility in water) associated with CCCCCCCCCCCCCCCCCCOCCOCCOCCOCCO[P-]123(OCCOCCOCCOCCOCCCCCCCCCCCCCCCCCC)n4c5ccc4C(c4ccccc4)=C4C=CC(=[N+]41)C(c1ccccc1)=c1ccc(n12)=C(c1ccccc1)C1=[N+]3C(=C5c2ccccc2)C=C1.Cl
OUTPUT: 7.96 mM

INPUT: Request the reported Solubility Cw (solubility in water) associated with COCCOCCOCCO[P-]123(OCCOCCOCCOC)n4c5ccc4C(c4ccccc4)=C4C=CC(=[N+]41)C(c1ccccc1)=c1ccc(n12)=C(c1ccccc1)C1=[N+]3C(=C5c2ccccc2)C=C1.Cl
OUTPUT: 17.3 mM

INPUT: Request the reported Solubility Cw (solubility in water) associated with COCCOCCO[P-]123(OCCOCCOC)n4c5ccc4C(c4ccccc4)=C4C=CC(=[N+]41)C(c1ccccc1)=c1ccc(n12)=C(c1ccccc1)C1=[N+]3C(=C5c2ccccc2)C=C1.Cl
OUTPUT: 13.9 mM

INPUT: Request the reported Solubility Cw (solubility in water) associated with CCCCOCCOCCO[P-]123(OCCOCCOCCCC)n4c5ccc4C(c4ccccc4)=C4C=CC(=[N+]41)C(c1ccccc1)=c1ccc(n12)=C(c1ccccc1)C1=[N+]3C(=C5c2ccccc2)C=C1.Cl
OUTPUT: 5.38 mM
